STUDY TARGET: H13 (Influenza A virus)
TEST: FACS, HA on mammalian cells; 2nd only 12
Below, each entry is listed with its recorded % cells binding to HA.
# number only, unit % dropped from output

Example entries begin here.
[[record]]
binder = "FHF11v3 (antibody, V domains shown) VH: QVQLQQSGPGLVKPSQTLSVTCGISGDSVSSYSAAWNWIRQSPSRGLEWLGRTYYRSKWYNDYAVSVKSRITINPDTSKNQFSLQLISVTPEDTAVYYCARVGAMTFGLLTGGMDVWGQGTTVTVSS VL: EIVLTQSPGTQSLSPGERATLSCRASQSLSRSYLAWYQQRPGKPPRLLIYGASSRATGIPDRFSGSGSGTDFSLTISSLEPEDSAMYFCQYYGDSPLFSFGPGTKVDIK"
recorded_number = 79

[[record]]
binder = "FHF11v9 (antibody, V domains shown) VH: QVQLQQSGPGLVKPSQTLSVTCGISGDSVSSYSAAWNWIRQSPSRGLEWLGRTYYRSGWYNDYAVSVKSRITINPDTSKNQFSLQLISVTPEDTAVYYCARVGAMTFGLLTGGMDVWGQGTTVTVSS VL: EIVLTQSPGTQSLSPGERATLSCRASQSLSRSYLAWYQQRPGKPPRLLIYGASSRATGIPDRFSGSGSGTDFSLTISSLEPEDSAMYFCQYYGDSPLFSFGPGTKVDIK"
recorded_number = 75

[[record]]
binder = "FHF11v6 (antibody, V domains shown) VH: QVQLQQSGPGLVKPSQTLSVTCGISGDSVSSHSAAWNWIRQSPSRGLEWLGRTYYRSGWYNDYAVSVKSRITINPDTSKNQFSLQLISVTPEDTAVYYCARVGAMTFGLLTGGMDVWGQGTTVTVSS VL: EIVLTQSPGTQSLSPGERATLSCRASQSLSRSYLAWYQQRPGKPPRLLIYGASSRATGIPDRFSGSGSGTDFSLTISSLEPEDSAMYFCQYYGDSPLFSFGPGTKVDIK"
recorded_number = 69


Then there is this binder:
Give a short answer stating reported % cells binding to HA for FHF11 (antibody, V domains shown) VH: QVQLQQSGPGLVKPSQTLSVTCGISGDSVSSHSAAWNWIRQSPSRGLEWLGRTYYRSKWYNDYAVSVKSRITINPDTSKNQFSLQLISVTPEDTAVYYCARVGAMTFGLLTGGMDVWGQGTTVTVSS VL: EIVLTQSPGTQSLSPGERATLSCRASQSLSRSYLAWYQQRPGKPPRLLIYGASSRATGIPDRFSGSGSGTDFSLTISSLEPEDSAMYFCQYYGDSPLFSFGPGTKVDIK .
79
